Target: T1, Acro COVID S1 (S1N-C82E8) (SARS-CoV-2, UniProt P0DTC2 16-685)
T1 construct: domain: S1
Protocol Text: phage ELISA
Experimental Endpoint: ELISA fold over background (fold over background)
Kindly answer with a numeric value in fold over background, unit omitted.

Query ELISA fold over background for 1-47 (antibody, V domains shown, also called variant 1-47) VH: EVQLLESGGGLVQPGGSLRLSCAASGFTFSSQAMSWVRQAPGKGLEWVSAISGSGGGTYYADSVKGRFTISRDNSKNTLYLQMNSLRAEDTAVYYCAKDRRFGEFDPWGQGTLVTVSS VL: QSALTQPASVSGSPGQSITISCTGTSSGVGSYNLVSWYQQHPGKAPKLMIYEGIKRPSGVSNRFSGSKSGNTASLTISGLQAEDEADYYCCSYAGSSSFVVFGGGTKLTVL
8.1

Complete the entry with ELISA fold over background for 1-28 (antibody, V domains shown, also called variant 1-28) VH: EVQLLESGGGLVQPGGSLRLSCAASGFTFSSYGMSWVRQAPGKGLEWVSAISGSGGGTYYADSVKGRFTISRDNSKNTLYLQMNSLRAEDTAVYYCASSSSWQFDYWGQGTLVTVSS VL: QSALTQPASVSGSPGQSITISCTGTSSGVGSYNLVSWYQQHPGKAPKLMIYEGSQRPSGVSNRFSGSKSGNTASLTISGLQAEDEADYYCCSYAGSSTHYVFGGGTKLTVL
1

Report measured ELISA fold over background; entry is 1-2 (antibody, V domains shown, also called variant 1-2) VH: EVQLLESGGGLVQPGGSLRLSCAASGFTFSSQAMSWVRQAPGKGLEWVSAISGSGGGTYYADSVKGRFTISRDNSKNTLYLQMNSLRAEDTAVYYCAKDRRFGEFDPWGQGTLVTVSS VL: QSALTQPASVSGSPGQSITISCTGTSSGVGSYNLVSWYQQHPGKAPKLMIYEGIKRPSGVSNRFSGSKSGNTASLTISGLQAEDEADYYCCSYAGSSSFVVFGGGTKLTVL
1.8

Identify measured ELISA fold over background associated with 1-10 (antibody, V domains shown, also called variant 1-10) VH: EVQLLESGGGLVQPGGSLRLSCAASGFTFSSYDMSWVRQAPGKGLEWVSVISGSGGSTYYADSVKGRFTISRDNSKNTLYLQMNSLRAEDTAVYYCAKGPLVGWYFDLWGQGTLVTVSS VL: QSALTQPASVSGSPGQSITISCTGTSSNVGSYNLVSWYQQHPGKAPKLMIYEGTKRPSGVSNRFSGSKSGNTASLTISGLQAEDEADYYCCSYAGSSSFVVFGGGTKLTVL
17.4

Provide only the value of recorded ELISA fold over background for 1-17 (antibody, V domains shown, also called variant 1-17) VH: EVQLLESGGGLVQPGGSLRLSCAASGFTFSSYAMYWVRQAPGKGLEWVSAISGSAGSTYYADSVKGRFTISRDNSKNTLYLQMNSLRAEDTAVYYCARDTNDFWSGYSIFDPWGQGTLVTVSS VL: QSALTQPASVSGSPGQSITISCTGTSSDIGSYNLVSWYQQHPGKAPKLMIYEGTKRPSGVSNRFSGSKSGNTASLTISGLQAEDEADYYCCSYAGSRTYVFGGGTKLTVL
25.1
